Origin of measurements: the RNAGym collection of RNA variant scans (doi:10.1002/anie.201605470)

B1: Osa-1-4 twister ribozyme (parent)
chain: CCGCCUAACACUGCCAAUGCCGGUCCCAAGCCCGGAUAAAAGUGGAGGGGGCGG

# Variants of: B1
# Protocol Details: self-cleavage, relative activity (ratio to wild type); higher = more cleavage; co-transcriptional
In this section, each of the variants is paired with its reported self-cleavage.
# answer = number (no unit)

Reference set, count: 6
C15A G23A; 0.08
A8U G35U; 0.18
G35C U43A; 0.14
C11U U24A; 0.06
U12C U18G; 0.61
C27G C52U; 0.16

Ask: Provide self-cleavage value for the following variant: A28G G34C
Reply: 0.08

Ask: Provide self-cleavage value for the following variant: A28U U18C
Reply: 0.73

Ask: Provide self-cleavage value for the following variant: C20A C21A
Reply: 0.78
